Cited source: ChEMBL document CHEMBL4689842

System: HEK-293T
Experiment: Incucyte cell viability with HEK293T; further: filed as whole numbers so only -1 and 0 and 1 occur
Type: toxicity, cell-based
Details: human, 12 h, 10 µM, compound concentration 10 uM, replicate number 1, timepoint 12 hours
Where a SMILES comes first, the peptide text is derived from it. [ ]: non-standard residue; d: D form. Arg(Me) = CNC(=N)NCCC[C@H](N)C(=O)O; d4Pal = N[C@H](Cc1ccncc1)C(=O)O; azaGly = NNC(=O)O
OUTCOME_MEASURE: Growth Rate
// no unit string in output, number only

Ask | May I ask what Growth Rate has been recorded for OC1(c2ccc(Cl)cc2)CCN(Cc2c[nH]c3ccccc23)CC1 ?
Reply | 0

Ask | May I ask what Growth Rate has been recorded for CNC(=N)NCCC[C@H](NC(=O)[C@H](CC(C)C)NC(=O)NNC(=O)[C@H](Cc1ccccc1)NC(=O)[C@H](CO)NC(=O)[C@H](CC(N)=O)NC(=O)[C@@H](Cc1ccncc1)NC(=O)[C@H](N)Cc1ccc(O)cc1)C(=O)N[C@@H](Cc1ccccc1)C(N)=O [KISS1-305] (H-[dY][d4Pal]NSF[azaGly]L[Arg(Me)]F-NH2) ?
Reply | 1

Ask | May I ask what Growth Rate has been recorded for Cc1nc(Nc2n[nH]c3c2CN(C(=O)N[C@H](CN(C)C)c2ccccc2)C3(C)C)c2sccc2n1 [PF-03758309] ?
Reply | 0

* * *

Exercise: state measured Population Healthy Nuclei (%) for each of the compounds provided.
System: Fibroblast
Assay: Multiplex assay against human fibroblast
Type: toxicity, cell-based
Conditions: 12 h, 1 µM, compound concentration 1 uM, replicate 1
API: value field is a number in %; no unit string.

Ask | # get_value(readout= Population Healthy Nuclei (%), system= Fibroblast) for Cc1nc(-c2ccc(-c3ccc(C(=O)N4CCc5cc6c(cc54)C4(CCN(C)CC4)CO6)cc3)c(C)c2)no1
Reply | 33

Ask | # get_value(readout= Population Healthy Nuclei (%), system= Fibroblast) for CN1CCCC(n2nc(Cc3ccc(Cl)cc3)c3ccccc3c2=O)CC1.Cl (centres undefined) [AZELASTINE HYDROCHLORIDE]
Reply | 50

Ask | # get_value(readout= Population Healthy Nuclei (%), system= Fibroblast) for CNc1nc(NCc2ccc(NS(C)(=O)=O)cc2Cl)cc(-c2ccccn2)n1
Reply | 41

Ask | # get_value(readout= Population Healthy Nuclei (%), system= Fibroblast) for CN(C)C(=O)/C(C#N)=C/c1ccc(-c2nc3cnc4[nH]ccc4c3n2C2CCCCC2)o1
Reply | 43

* * *

System: U2OS
Experiment: Multiplex assay against U2OS
Assay type: toxicity, cell-based
Details: human, 12 h, 10 µM, compound concentration 10 uM, replicate 2
Exercise: state measured Population Normal (%) for each of the molecules provided.
API: value field is a number in %; no unit string.

Ask | May I ask what Population Normal (%) has been recorded for CCN(CC)CCCCNc1ncc2cc(-c3cc(OC)cc(OC)c3)c(NC(=O)NC(C)(C)C)nc2n1 [PD-173074] ?
Reply | 69

Ask | May I ask what Population Normal (%) has been recorded for Cl.N#Cc1ccc2[nH]cc(CCCCN3CCN(c4ccc5oc(C(N)=O)cc5c4)CC3)c2c1 [VILAZODONE HYDROCHLORIDE] ?
Reply | 89

Ask | May I ask what Population Normal (%) has been recorded for CNc1nc(NCc2ccc(NS(C)(=O)=O)cc2Cl)cc(-c2ccccn2)n1 ?
Reply | 90

Ask | May I ask what Population Normal (%) has been recorded for CN1CCC[C@@H]1CCO[C@](C)(c1ccccc1)c1ccc(Cl)cc1.O=C(O)/C=C/C(=O)O [CLEMASTINE FUMARATE] ?
Reply | 78

Ask | May I ask what Population Normal (%) has been recorded for CN(C)C(=O)/C(C#N)=C/c1ccc(-c2nc3cnc4[nH]ccc4c3n2C2CCCCC2)o1 ?
Reply | 45

Ask | May I ask what Population Normal (%) has been recorded for COc1ncc(-c2ccc3nccc(-c4ccnnc4)c3c2)cc1NS(=O)(=O)c1ccc(F)cc1F [OMIPALISIB] ?
Reply | 92

Ask | May I ask what Population Normal (%) has been recorded for C[C@@H](NCCCc1cccc(C(F)(F)F)c1)c1cccc2ccccc12.Cl [CINACALCET HYDROCHLORIDE] ?
Reply | 92

Ask | May I ask what Population Normal (%) has been recorded for Cc1nc(Nc2n[nH]c3c2CN(C(=O)N[C@H](CN(C)C)c2ccccc2)C3(C)C)c2sccc2n1 [PF-03758309] ?
Reply | 81

Ask | May I ask what Population Normal (%) has been recorded for CN(C)CC#Cc1ccc(OCCCc2sc(N3CCc4cccc(C(=O)Nc5nc6ccccc6s5)c4C3)nc2C(=O)O)c(F)c1 [A-1155463] ?
Reply | 94

Ask | May I ask what Population Normal (%) has been recorded for CN1CCCC(n2nc(Cc3ccc(Cl)cc3)c3ccccc3c2=O)CC1.Cl (stereo unspecified) [AZELASTINE HYDROCHLORIDE] ?
Reply | 95

Ask | May I ask what Population Normal (%) has been recorded for CN1CCN(CCOc2cc(OC3CCOCC3)c3c(Nc4c(Cl)ccc5c4OCO5)ncnc3c2)CC1 [SARACATINIB] ?
Reply | 92

Ask | May I ask what Population Normal (%) has been recorded for CC[C@H](C)C(=O)O[C@H]1C[C@@H](C)C=C2C=C[C@H](C)[C@H](CC[C@@H]3C[C@@H](O)CC(=O)O3)[C@H]21 [LOVASTATIN] ?
Reply | 91

Ask | May I ask what Population Normal (%) has been recorded for CC(C)NCC(O)COc1ccc(CCOCC2CC2)cc1.Cl (stereo unspecified) [BETAXOLOL HYDROCHLORIDE] ?
Reply | 92

Ask | May I ask what Population Normal (%) has been recorded for OC1(c2ccc(Cl)cc2)CCN(Cc2c[nH]c3ccccc23)CC1 ?
Reply | 96

Ask | May I ask what Population Normal (%) has been recorded for C=CC(=O)Nc1cc2c(Nc3ccc(F)c(Cl)c3)ncnc2cc1OCCCN1CCOCC1.Cl.Cl [CANERTINIB DIHYDROCHLORIDE] ?
Reply | 89

Ask | May I ask what Population Normal (%) has been recorded for C=CC(=O)Nc1cccc(C(=O)Nc2ccc(Nc3cc(-c4[nH]c(SC)nc4C)ccn3)cc2)c1 ?
Reply | 81

* * *

Exercise: state measured Population Mitochondria Different-Phenotype (%) for each of the molecules provided.
Test system: HEK-293T
Test: Multiplex assay against HEK293T
Assay type: toxicity, cell-based
Conditions: human, 48 h, 1 µM, compound concentration 1 uM, replicate 1
API: value field is a number in %; no unit string.

Ask | May I ask what Population Mitochondria Different-Phenotype (%) has been recorded for CN1CCN(c2ccc(OC(F)(F)F)c(Nc3ncc4c(n3)-c3c(c(C(N)=O)nn3CCO)CC4)c2)CC1 [ONVANSERTIB] ?
Reply | 59

Ask | May I ask what Population Mitochondria Different-Phenotype (%) has been recorded for O=C1NCN(c2ccccc2)C12CCN(CCCOc1ccc(F)cc1)CC2 [SPIRAMIDE] ?
Reply | 26

Ask | May I ask what Population Mitochondria Different-Phenotype (%) has been recorded for C[C@@H](NCCCc1cccc(C(F)(F)F)c1)c1cccc2ccccc12.Cl [CINACALCET HYDROCHLORIDE] ?
Reply | 43

Ask | May I ask what Population Mitochondria Different-Phenotype (%) has been recorded for Cc1csc2c(N[C@@H](C)CN3CCN(S(=O)(=O)c4ccc(Cl)c(Cl)c4)CC3)ncnc12 ?
Reply | 80

Ask | May I ask what Population Mitochondria Different-Phenotype (%) has been recorded for C=CC(=O)Nc1ccc2ncnc(Nc3ccc(OCc4cccc(F)c4)c(Cl)c3)c2c1.Cc1ccc(S(=O)(=O)O)cc1 ?
Reply | 32

Ask | May I ask what Population Mitochondria Different-Phenotype (%) has been recorded for COc1ncc(-c2ccc3nccc(-c4ccnnc4)c3c2)cc1NS(=O)(=O)c1ccc(F)cc1F [OMIPALISIB] ?
Reply | 75

Ask | May I ask what Population Mitochondria Different-Phenotype (%) has been recorded for CN1CCN(CCOc2cc(OC3CCOCC3)c3c(Nc4c(Cl)ccc5c4OCO5)ncnc3c2)CC1 [SARACATINIB] ?
Reply | 50

Ask | May I ask what Population Mitochondria Different-Phenotype (%) has been recorded for CN1CCCC(n2nc(Cc3ccc(Cl)cc3)c3ccccc3c2=O)CC1.Cl (stereo not given) [AZELASTINE HYDROCHLORIDE] ?
Reply | 72

Ask | May I ask what Population Mitochondria Different-Phenotype (%) has been recorded for CN1CCC[C@@H]1CCO[C@](C)(c1ccccc1)c1ccc(Cl)cc1.O=C(O)/C=C/C(=O)O [CLEMASTINE FUMARATE] ?
Reply | 88

Ask | May I ask what Population Mitochondria Different-Phenotype (%) has been recorded for CN(C)C(=O)/C(C#N)=C/c1ccc(-c2nc3cnc4[nH]ccc4c3n2C2CCCCC2)o1 ?
Reply | 21
